Listing of recorded relative binding ratio (IC50 of standard peptide / IC50 of test peptide) by entry.
# system.name: HLA-A*0301 (human)
# test.description: competition with 125I-labeled standard peptide for purified HLA-A*0301, gel filtration
Keep the answer to the number alone.

Observe how each entry below is paired with its result.
{"binder": "QLFLNTLSF (modifications not checked) [HPV18 E7 88-96 peptide …]", "recorded.result": 0.0005}
{"binder": "LSFVCPWCA (modifications not checked) [HPV18 E7 94-102 peptide …]", "recorded.result": 0.0005}

Q: Given the entry RIKLVVESSA (modifications not checked) [HPV18 E7 71-80 peptide …] , report its measured relative binding ratio (IC50 of standard peptide / IC50 of test peptide).
A: 0.0005

Q: Would you kindly share the measured relative binding ratio (IC50 of standard peptide / IC50 of test peptide) for VVLLLVRYK (modifications not checked) [HPV16 E1 peptide … (position 274, 9 amino acids)] ?
A: 1
